System: Mitogen-activated protein kinase kinase kinase 5 (Homo sapiens, UniProt Q99683)
Sequence (Q99683 whole entry): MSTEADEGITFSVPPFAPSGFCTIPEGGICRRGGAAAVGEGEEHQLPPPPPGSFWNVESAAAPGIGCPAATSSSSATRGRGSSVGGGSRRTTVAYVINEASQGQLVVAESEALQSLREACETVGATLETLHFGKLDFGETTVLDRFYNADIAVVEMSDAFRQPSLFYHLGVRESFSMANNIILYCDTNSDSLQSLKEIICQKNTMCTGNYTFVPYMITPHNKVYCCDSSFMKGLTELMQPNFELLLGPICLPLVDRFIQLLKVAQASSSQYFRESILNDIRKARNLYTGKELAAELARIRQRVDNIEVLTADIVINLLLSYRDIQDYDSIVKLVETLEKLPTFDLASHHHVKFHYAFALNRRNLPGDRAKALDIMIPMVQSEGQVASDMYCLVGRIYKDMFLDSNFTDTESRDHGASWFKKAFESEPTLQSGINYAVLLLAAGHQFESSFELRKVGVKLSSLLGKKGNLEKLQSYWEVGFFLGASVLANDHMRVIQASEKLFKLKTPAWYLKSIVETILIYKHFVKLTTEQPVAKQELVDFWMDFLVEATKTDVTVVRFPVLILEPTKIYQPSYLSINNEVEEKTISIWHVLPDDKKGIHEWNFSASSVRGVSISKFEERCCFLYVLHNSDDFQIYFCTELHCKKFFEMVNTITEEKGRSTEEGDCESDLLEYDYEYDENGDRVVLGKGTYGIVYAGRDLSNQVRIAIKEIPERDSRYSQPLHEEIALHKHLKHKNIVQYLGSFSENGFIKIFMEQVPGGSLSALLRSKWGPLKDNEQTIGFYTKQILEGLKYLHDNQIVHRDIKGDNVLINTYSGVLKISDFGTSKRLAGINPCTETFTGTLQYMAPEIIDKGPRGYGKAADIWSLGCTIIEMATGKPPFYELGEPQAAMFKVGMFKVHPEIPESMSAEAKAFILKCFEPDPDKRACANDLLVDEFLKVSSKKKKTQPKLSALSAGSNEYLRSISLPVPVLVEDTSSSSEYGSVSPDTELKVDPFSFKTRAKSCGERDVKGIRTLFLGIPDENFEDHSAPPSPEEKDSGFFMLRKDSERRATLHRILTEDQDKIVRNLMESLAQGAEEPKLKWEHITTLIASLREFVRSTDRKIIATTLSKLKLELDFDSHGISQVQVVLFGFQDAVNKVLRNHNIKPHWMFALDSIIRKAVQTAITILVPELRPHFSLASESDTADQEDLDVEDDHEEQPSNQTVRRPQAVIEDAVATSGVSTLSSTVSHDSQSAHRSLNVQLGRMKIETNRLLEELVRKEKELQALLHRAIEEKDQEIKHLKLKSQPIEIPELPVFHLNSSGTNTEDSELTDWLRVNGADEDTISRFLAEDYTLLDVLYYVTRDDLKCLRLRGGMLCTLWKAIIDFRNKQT
Measurement Notes: Inhibition of ASK1 (unknown origin)
pIC50: −log10 of the molar value.
Measured Metric: pIC50

Entry `O=C(c1ccc(F)c(F)c1Nc1ccc(I)cc1F)N1CC(O)([C@@H]2CCCCN2)C1` — recorded pIC50 = < 5.00

----------
Measurement Notes: Inhibition of AMPK (unknown origin)
Design: species or system Homo sapiens
pIC50: −log10 of the molar value.
Measured Metric: pIC50

Entry `O=C(c1ccc(F)c(F)c1Nc1ccc(I)cc1F)N1CC(O)([C@@H]2CCCCN2)C1` — recorded pIC50 = < 5.00

----------
System: MAP kinase-activated protein kinase 2 (Homo sapiens, UniProt P49137)
Sequence (P49137 whole entry): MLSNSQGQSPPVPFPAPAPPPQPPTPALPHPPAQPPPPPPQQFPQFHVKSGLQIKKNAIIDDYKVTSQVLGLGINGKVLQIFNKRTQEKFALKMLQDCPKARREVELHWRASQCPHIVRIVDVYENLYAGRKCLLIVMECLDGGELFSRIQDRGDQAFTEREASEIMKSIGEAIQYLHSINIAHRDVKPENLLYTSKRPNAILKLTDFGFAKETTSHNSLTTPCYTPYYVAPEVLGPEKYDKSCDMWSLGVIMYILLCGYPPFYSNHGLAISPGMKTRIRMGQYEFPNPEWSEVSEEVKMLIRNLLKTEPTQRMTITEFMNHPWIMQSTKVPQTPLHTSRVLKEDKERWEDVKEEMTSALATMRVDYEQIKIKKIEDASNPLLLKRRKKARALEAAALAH
Measurement Notes: Inhibition of MAPKAP2 (unknown origin)
pIC50: −log10 of the molar value.
Measured Metric: pIC50

Entry O=C(c1ccc(F)c(F)c1Nc1ccc(I)cc1F)N1CC(O)([C@@H]2CCCCN2)C1 [COBIMETINIB] — recorded pIC50 = < 5.00

----------
System: Serine/threonine-protein kinase Chk1 (Homo sapiens, UniProt O14757)
Sequence (O14757 whole entry): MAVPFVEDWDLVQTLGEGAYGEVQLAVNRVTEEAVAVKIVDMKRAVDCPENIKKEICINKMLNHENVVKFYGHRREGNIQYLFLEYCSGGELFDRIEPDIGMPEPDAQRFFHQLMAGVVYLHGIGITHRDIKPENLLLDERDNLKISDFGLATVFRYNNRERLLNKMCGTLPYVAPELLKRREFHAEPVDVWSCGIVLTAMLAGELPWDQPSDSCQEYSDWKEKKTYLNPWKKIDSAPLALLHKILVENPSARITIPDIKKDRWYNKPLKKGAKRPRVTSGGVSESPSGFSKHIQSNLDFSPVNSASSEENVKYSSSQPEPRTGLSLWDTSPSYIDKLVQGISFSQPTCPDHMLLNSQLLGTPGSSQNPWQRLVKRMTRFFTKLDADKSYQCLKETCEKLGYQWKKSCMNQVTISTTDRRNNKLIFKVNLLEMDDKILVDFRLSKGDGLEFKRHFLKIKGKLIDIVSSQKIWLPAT
pIC50: −log10 of the molar value.
Measured Metric: pIC50

Entry `O=C(c1ccc(F)c(F)c1Nc1ccc(I)cc1F)N1CC(O)([C@@H]2CCCCN2)C1` — recorded pIC50 = < 5.00

----------
System: Calcium/calmodulin-dependent protein kinase type II subunit alpha (Homo sapiens)
Sequence (Q9UQM7 whole entry): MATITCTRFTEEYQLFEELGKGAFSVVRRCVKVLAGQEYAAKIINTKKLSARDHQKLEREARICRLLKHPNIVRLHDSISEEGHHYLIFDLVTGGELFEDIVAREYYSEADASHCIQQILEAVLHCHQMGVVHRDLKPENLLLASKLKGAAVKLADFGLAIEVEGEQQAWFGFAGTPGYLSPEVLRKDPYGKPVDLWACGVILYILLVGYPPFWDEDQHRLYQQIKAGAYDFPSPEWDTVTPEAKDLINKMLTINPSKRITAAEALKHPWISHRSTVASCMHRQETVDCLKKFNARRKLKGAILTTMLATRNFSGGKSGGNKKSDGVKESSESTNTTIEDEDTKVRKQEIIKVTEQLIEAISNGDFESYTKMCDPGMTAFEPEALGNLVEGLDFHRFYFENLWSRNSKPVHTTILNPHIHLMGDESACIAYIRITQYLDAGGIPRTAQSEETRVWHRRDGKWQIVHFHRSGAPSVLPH
Measurement Notes: Inhibition of CamK2a (unknown origin)
pIC50: −log10 of the molar value.
Measured Metric: pIC50

pIC50 for Calcium/calmodulin-dependent protein kinase type II subunit alpha (Homo sapiens) with input O=C(c1ccc(F)c(F)c1Nc1ccc(I)cc1F)N1CC(O)([C@@H]2CCCCN2)C1 [COBIMETINIB] equals < 5.00

----------
System: Tyrosine-protein kinase ZAP-70 (Homo sapiens, UniProt P43403)
Sequence (P43403 whole entry): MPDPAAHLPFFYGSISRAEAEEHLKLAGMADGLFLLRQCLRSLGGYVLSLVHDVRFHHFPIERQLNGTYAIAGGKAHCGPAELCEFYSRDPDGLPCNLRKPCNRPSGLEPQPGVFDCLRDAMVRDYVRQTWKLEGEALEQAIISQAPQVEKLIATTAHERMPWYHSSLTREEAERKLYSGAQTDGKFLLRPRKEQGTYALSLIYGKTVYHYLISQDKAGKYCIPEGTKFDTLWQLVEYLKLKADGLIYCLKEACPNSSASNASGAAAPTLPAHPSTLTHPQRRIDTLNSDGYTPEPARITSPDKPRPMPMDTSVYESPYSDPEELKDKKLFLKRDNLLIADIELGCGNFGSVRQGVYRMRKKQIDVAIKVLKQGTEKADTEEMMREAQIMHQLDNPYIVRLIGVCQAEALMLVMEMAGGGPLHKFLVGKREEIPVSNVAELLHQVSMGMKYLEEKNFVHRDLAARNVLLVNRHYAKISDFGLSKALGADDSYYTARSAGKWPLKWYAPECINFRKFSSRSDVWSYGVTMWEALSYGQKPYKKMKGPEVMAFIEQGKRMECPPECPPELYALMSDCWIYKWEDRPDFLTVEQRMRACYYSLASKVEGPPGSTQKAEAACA
Measurement Notes: Inhibition of ZAP70 (unknown origin)
pIC50: −log10 of the molar value.
Measured Metric: pIC50

Entry O=C(c1ccc(F)c(F)c1Nc1ccc(I)cc1F)N1CC(O)([C@@H]2CCCCN2)C1 [COBIMETINIB] — recorded pIC50 = < 5.00

----------
System: Serine/threonine-protein kinase pim-1 (Homo sapiens, UniProt P11309)
Sequence (P11309 whole entry): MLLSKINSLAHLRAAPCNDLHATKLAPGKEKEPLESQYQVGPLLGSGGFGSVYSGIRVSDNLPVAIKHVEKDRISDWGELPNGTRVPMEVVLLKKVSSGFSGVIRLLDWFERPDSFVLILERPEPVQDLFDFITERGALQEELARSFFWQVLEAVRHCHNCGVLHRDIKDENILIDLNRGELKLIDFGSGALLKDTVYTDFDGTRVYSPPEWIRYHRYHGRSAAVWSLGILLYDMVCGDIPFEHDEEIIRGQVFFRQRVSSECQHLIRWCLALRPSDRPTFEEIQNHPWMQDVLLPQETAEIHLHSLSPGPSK
pIC50: −log10 of the molar value.
Measured Metric: pIC50

Entry `O=C(c1ccc(F)c(F)c1Nc1ccc(I)cc1F)N1CC(O)([C@@H]2CCCCN2)C1` — recorded pIC50 = < 5.00

----------
System: UniProt:Q05397
Sequence (Q05397 whole entry): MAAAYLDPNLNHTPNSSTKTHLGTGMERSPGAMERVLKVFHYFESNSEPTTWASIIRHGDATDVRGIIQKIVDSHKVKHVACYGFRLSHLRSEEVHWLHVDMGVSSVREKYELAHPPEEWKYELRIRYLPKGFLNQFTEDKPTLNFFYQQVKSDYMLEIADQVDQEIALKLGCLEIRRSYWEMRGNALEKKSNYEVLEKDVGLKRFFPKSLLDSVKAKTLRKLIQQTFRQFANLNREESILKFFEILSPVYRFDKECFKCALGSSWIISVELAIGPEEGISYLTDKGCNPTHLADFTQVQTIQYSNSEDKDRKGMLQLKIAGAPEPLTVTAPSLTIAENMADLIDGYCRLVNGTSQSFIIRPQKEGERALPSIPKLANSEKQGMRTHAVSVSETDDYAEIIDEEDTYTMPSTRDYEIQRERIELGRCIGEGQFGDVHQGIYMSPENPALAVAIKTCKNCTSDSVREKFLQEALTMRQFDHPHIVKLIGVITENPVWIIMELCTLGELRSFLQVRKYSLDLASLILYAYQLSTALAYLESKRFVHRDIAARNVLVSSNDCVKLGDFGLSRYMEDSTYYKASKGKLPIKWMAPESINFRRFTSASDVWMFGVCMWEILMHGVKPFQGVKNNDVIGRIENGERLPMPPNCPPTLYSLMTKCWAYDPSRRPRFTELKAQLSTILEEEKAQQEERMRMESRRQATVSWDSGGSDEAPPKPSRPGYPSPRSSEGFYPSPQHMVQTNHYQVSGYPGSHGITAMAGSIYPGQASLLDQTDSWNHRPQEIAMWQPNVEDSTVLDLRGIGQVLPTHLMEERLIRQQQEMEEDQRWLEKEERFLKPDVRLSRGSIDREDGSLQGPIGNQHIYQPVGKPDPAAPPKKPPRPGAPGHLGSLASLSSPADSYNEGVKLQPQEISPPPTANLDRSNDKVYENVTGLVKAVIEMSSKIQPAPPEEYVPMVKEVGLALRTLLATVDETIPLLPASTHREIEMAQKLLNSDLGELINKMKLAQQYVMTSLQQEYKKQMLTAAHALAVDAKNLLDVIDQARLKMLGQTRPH
pIC50: −log10 of the molar value.
Measured Metric: pIC50

Entry `O=C(c1ccc(F)c(F)c1Nc1ccc(I)cc1F)N1CC(O)([C@@H]2CCCCN2)C1` — recorded pIC50 = < 5.00

----------
System: Mast/stem cell growth factor receptor Kit (Homo sapiens)
pIC50: −log10 of the molar value.
Measured Metric: pIC50

Entry O=C(c1ccc(F)c(F)c1Nc1ccc(I)cc1F)N1CC(O)([C@@H]2CCCCN2)C1 [COBIMETINIB] — recorded pIC50 = < 5.00

----------
System: Inhibitor of nuclear factor kappa-B kinase subunit alpha (Homo sapiens)
Sequence (O15111 whole entry): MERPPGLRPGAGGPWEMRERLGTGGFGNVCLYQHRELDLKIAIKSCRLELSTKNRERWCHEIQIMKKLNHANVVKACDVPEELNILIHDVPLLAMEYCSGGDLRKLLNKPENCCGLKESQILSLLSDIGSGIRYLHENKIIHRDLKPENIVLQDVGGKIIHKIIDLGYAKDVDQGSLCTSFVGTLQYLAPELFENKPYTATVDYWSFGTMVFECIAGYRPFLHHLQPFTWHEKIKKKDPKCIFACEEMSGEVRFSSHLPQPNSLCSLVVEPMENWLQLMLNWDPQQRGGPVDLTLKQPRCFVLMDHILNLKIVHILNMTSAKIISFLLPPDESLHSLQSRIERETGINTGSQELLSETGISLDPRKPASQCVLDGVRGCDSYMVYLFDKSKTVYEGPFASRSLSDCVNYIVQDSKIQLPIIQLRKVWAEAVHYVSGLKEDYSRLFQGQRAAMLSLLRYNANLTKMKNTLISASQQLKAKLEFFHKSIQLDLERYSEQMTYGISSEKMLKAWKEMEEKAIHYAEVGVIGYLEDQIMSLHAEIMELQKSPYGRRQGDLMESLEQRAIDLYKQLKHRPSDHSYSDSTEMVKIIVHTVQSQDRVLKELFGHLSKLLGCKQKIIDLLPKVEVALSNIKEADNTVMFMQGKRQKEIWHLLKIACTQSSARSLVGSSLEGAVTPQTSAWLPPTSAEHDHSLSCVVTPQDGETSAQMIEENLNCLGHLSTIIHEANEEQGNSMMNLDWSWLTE
Measurement Notes: Inhibition of IKKa (unknown origin)
pIC50: −log10 of the molar value.
Measured Metric: pIC50

Entry `O=C(c1ccc(F)c(F)c1Nc1ccc(I)cc1F)N1CC(O)([C@@H]2CCCCN2)C1` — recorded pIC50 = < 5.00
